Task for the reader: assign each of the following molecules its reported Activity.
# MEASURED_TARGET: Phosphodiesterase 4 (Homo sapiens) (UniProt P27815+Q08499+Q07343+Q08493)
# ASSAY_NAME: Inhibitory activity towards cAMP phosphodiesterase isolated from rabbit lung.
# Format: protein assay
# Design: unit not given here
# CONDITIONS_USED: Oryctolagus cuniculus; target entry is the homologue from another species
Answers are plain numbers.

Recorded Activity, per entry:
structure_string=CSc1nc(S)n2ncc(Br)c2n1 observed_value=1
structure_string=CCc1ncn2nc(-c3ccccc3)cc2n1 observed_value=14
structure_string=CCCc1nc(C)nc2cc(-c3ccccc3)nn12 observed_value=10
structure_string=Cc1nc(-c2ccccc2)n2nc(-c3ccccc3)cc2n1 observed_value=10
structure_string=CSc1ncnc2cc(-c3ccccc3)nn12 observed_value=11

Dear reader, for each entry below, please note its Activity.
1. CCCNc1nc(SC)nc2c(Br)cnn12
2. Cc1nc(C)n2nc(-c3ccccc3)c(Br)c2n1
3. CCSc1nc(SC)nc2c(Br)cnn12
4. Cc1ncn2nc(-c3ccccc3)cc2n1
5. CCCCNc1ncnc2cc(-c3ccccc3)nn12

[67, 40, 13, 25, 13.5]
